- Test system: U2OS
- Measurement Description: Multiplex assay against U2OS
- Assay type: toxicity, cell-based
- Condition Notes: human, 24 h, 10 µM, compound concentration 10 uM, replicate 1
Experimental Endpoint: Population Hoechst High Intensity Objects (%)

- Molecule: "O=C(NCCNCC(O)COc1ccc(O)cc1)N1CCOCC1.O=C(NCCNCC(O)COc1ccc(O)cc1)N1CCOCC1.O=C(O)/C=C/C(=O)O (stereo not drawn) [XAMOTEROL FUMARATE]"
  Meas Value: "1%"
- Molecule: "COc1cc2nc(N3CCN(C(=O)COc4c(OC)cccc4C(C)C)CC3)nc(N)c2cc1OC.Cl.Cl"
  Meas Value: "9%"
- Molecule: "N[C@](CC1c2ccccc2Oc2ccccc21)(C(=O)O)[C@H]1C[C@@H]1C(=O)O"
  Meas Value: "3%"

* * *

- Test system: HEK-293T
- Measurement Description: Multiplex assay against HEK293T
- Type: toxicity, cell-based
- Condition Notes: human, 24 h, 1 µM, compound concentration 1 uM, replicate 2
Threshold-based label: Population Fragmented Nuclei (%) under 7% gives MET, Population Fragmented Nuclei (%) not under 7% gives NOT MET.

- Compound: "N[C@](CC1c2ccccc2Oc2ccccc21)(C(=O)O)[C@H]1C[C@@H]1C(=O)O"
  Classification: "NOT MET"
- Compound: "Cc1cc(=O)n(C)c2cc(N3C(=O)CC[C@H](NS(=O)(=O)CC(C)C)[C@H]3c3ccc(Cl)cc3)ccc12"
  Classification: "MET"
- Compound: "O=C(NCCNCC(O)COc1ccc(O)cc1)N1CCOCC1.O=C(NCCNCC(O)COc1ccc(O)cc1)N1CCOCC1.O=C(O)/C=C/C(=O)O (stereo not drawn) [XAMOTEROL FUMARATE]"
  Classification: "NOT MET"
- Compound: "O=C(Nc1cc(-c2ccccc2)nn1-c1ccccc1F)c1ccc([N+](=O)[O-])cc1"
  Classification: "NOT MET"
- Compound: "COc1ccc2c(c1OCc1ccccc1)C[C@@H](C(=O)O)N(C(=O)C(c1ccccc1)c1ccccc1)C2 [OLODANRIGAN]"
  Classification: "NOT MET"
- Compound: "COc1c(Nc2ccc(S(C)(=O)=O)nc2C)ncnc1OC1CCN(C(=O)OC(C)C)CC1 [ADP-597]"
  Classification: "MET"
- Compound: "CC(C)(O)C(=O)N1CCN(c2ccc(C(F)(F)F)c(C3=C(c4c[nH]c5ccccc45)C(=O)NC3=O)c2)CC1"
  Classification: "MET"
- Compound: "CCCCC[C@H](O)/C=C/[C@H]1[C@H](O)CC(=O)[C@@H]1CCCCCCC(=O)O [ALPROSTADIL]"
  Classification: "MET"
- Compound: "C=CCN1C[C@H](C(=O)N(CCCN(C)C)C(=O)NCC)C[C@@H]2c3cccc4[nH]cc(c34)C[C@H]21 [CABERGOLINE]"
  Classification: "MET"
- Compound: "COCCn1c(C)c(C)s/c1=N\\C(=O)C1C(C)(C)C1(C)C"
  Classification: "NOT MET"
- Compound: "COc1cc2nc(N3CCN(C(=O)COc4c(OC)cccc4C(C)C)CC3)nc(N)c2cc1OC.Cl.Cl"
  Classification: "NOT MET"
- Compound: "S=C(NCCCc1c[nH]cn1)NCCCN(Cc1ccc(Cl)c(Cl)c1)c1ccc(Br)cn1"
  Classification: "NOT MET"
- Compound: "O=c1ccc2ccc(OCCCCN3CCN(c4cccc5sccc45)CC3)cc2[nH]1 [BREXPIPRAZOLE]"
  Classification: "MET"
- Compound: "CN1CCN2c3ccccc3Cc3ccccc3C2C1.Cl (stereo not drawn) [MIANSERIN HYDROCHLORIDE]"
  Classification: "NOT MET"
- Compound: "Cc1cc(-c2ccc3c(c2)CC[C@H]3N2CC3(CCN(C(=O)Cc4cn5cc(C)sc5n4)CC3)C2)ncn1 [PF-5190457]"
  Classification: "NOT MET"
- Compound: "CCCCCCNC(=O)Nc1ccc(S(=O)(=O)Nc2ccc(CCNC[C@H](O)COc3ccc(O)cc3)cc2)cc1 [L-755507]"
  Classification: "NOT MET"
